System: TK-10 renal
Experiment: NCI tumour cell line growth inhibition, 48 h
quantityKind: TGI

Here's what some known entries look like.
CC1(C)CCCOc2cccc(c2)OCCCC(C)(C)C1=O: > 100 µM
CCCC(=O)Oc1ccc2c(C)cc(=O)oc2c1OC(=O)CCC: > 100 µM
CCCSc1ccc2[nH]c(N3C(=O)/C(=C/c4cc(OC)c(OC)c(OC)c4)N=C3c3ccccc3)cc2c1: > 37.5 µM
Cn1c2ccccc2c2nc3ccccc3c(Cl)c21: > 100 µM
COc1cc2c(cc1OCCCCCCCCN1C(=O)c3cccc4cccc(c34)C1=O)N=C[C@@H]1CCCN1C2=O: > 100 µM

Hey, quick one: what's TGI for each of these?
1. N#Cc1c(N)nc2c(c1-c1ccc(Br)cc1)CSc1ccccc1-2
2. O=C(Cn1c2ccc(Br)cc2c2nc3ccccc3nc21)N/N=C/c1ccccc1
3. CCCN1C(=O)CSC1=Nc1ccc2cc3ccc(N=C4SCC(=O)N4CCC)cc3nc2c1
4. COc1ccc(NC(=O)CC(=O)N/N=C/c2ccc(N(CCC#N)S(=O)(=O)c3ccccc3)cc2)cc1
5. CCNc1nc2c(ncn2C2CC(O)C(COP(=O)(O)O)O2)c(=O)[nH]1 (stereo unspecified)
6. O=[N+]([O-])[O-].O=[N+]([O-])[O-].[Au].[Au].c1ccc([P-]c2ccccc2)cc1.c1ccc([P-]c2ccccc2)cc1
7. COC(=O)c1ccccc1NC(=O)C(=O)CC(=O)CC(c1ccccc1)c1c(O)c2ccccc2oc1=O (stereo unspecified)
8. COC(=O)c1ccccc1C1CN=NC12Cc1cc(C)c(C)cc1C2=O (stereo unspecified)

> 100 µM
> 100 µM
90.6 µM
> 100 µM
> 100 µM
53.6 µM
> 100 µM
> 100 µM

Record TGI per entry; entries follow.
1. CCCCCCCCCCCCCC(=O)C(C)N (stereo unspecified)
2. C/C(N=Nc1nc2ccccc2[nH]1)=C1/C=CC=CN1O
3. CN(/N=C\c1ccc2ccccc2c1)C1=NCCN1
4. COC(=O)C1(C2CC/C(C)=C/CC/C(C)=C/CC[C@@]3(C)O[C@@H]3C2)CC1 (stereo partly specified)
5. COc1ccc(C(=O)C(C(=O)C(=O)Nc2nccs2)c2ccc(OC)cc2)cc1 (stereo unspecified)
6. O=[N+]([O-])c1ccc(/C=C(/c2ccc([N+](=O)[O-])o2)S(=O)(=O)c2ccccc2)o1
7. Cc1cccc(C)c1NC(=O)CCC(=O)NC(N)=S

1. 13.2 µM
2. > 100 µM
3. 28.5 µM
4. > 100 µM
5. > 100 µM
6. 15.2 µM
7. > 100 µM

Indicate the recorded TGI value for this compound: COc1ccc(CC(NC(=O)[C@H](C)NC(=O)CN2CCOCC2)C(=O)N[C@@H](Cc2ccccc2)C(=O)[C@@]2(C)CO2)cc1 (stereo partly specified)
4.93 µM
